# Test system: Human papillomavirus type 1a E7 protein (residues 1-88)
# Test Method Notes: HPV1a E7 small-molecule binders, primary screen, biochemical, small-molecule microarray, residues 1-88, 635 nm (AID 1129)
# Condition Set: small-molecule microarray binding, fluorescence 635 nm; higher = more signal
Documented composite z-score across a set of molecules
Attribute Measured: composite z-score

• C=CCC(OC(C)=O)[C@@H]1[C@@H](N(Cc2cc3ccccc3o2)C(=O)Cc2ccc(OC)cc2)c2cc(OCCCO)ccc2N1C(=O)Cc1ccc(OC)cc1 (stereo not given in full) = -0.406
• C=CCC(OC(C)=O)[C@@H]1[C@@H](N(Cc2cccc3ccccc23)C(=O)c2ccc(-c3ccccc3)cc2)c2cc(OCCCO)ccc2N1C(=O)c1ccc2ccccc2n1 (stereo not given in full) = 0.263
• CN(C)CCCCNC(=O)[C@H]1C[C@H]2C(=O)N[C@@H](Cc3ccccc3)C(=O)N2[C@H]1c1cccc(OCCO)c1 = -0.562
• C=CCC(OC(C)=O)[C@@H]1[C@@H](N(Cc2ccc(-c3ccccc3)cc2)C(=O)c2ccc(-c3ccccc3)cc2)c2cc(OCCCO)ccc2N1C(=O)c1ccc2ccccc2n1 (stereo not given in full) = 0.907
• O=C1C2C=CC(C(O)c3cccs3)N(Nc3ccccc3)C2C(=O)N1c1ccccc1 (stereo not given) = -0.741
• CCCCC(O)C1C=CC2C(=O)NC(=O)C2N1Nc1ccc(Cl)cc1Cl (stereo not given) = 0.32
• CN(C)CCCNC(=O)[C@@]1(Cc2ccccc2I)c2ccccc2C(=O)N(Cc2ccccc2)[C@H]1c1ccc(CO)cc1 = 1.26
• CC(=O)c1ccc(C(O)C2C=CC3C(=O)N(C)C(=O)C3N2NC(=O)OC(C)(C)C)cc1 (stereo not given) = 1.23
• COc1ccc(CC[C@H](O)c2cccc(OCC(=O)OC(C)(C)C)c2)cc1 = 1.01
• CCCCCCCCCCC(O)C1C=CC2C(=O)N(C)C(=O)C2N1N1CCCCC1 (stereo not given) = -0.768
• CCCC[C@@H]1C[C@H]1[C@@H](NC(=O)Cc1ccccc1)c1ccc(Cl)cc1 = 1.18
• COCCOC(=O)N1C(=O)[C@@]2(c3ccccc31)[C@H](C(N)=O)[C@H]1C(=O)O[C@H](c3ccccc3)[C@H](c3ccccc3)N1[C@@H]2c1ccc(OCCO)cc1 = 1.24
• C=CCC(OC(C)=O)[C@@H]1[C@@H](N(Cc2ccc(-c3cccc(C(F)(F)F)c3)o2)C(=O)c2cccc3ccccc23)c2cc(OCCCO)ccc2N1C(=O)c1ccc2ccccc2n1 (stereo not given in full) = -0.696
• O=C1OCCC/C=C\[C@H]2OC34C=CCN(Cc5ccccc5)C(=O)[C@H]3N(CCCCCO)C(=O)[C@@H]4C12 (stereo not given in full) = -1.2
• CC(C)CNC(=O)[C@@H]1c2ccccc2C(=O)N(Cc2ccccc2Cl)[C@H]1c1ccc(CO)cc1 = 0.844
